From various publications: Ki for 5-hydroxytryptamine receptor 1D (Homo sapiens, UniProt P28221).

Below: 3 compounds and their reported Ki.
NCCc1c[nH]c2ccc(OCc3ccc(COc4ccc5[nH]cc(CCN)c5c4)cc3)cc12 : 0.11 nM
CNc1cc(-c2csc(N(C)C(=O)c3ccc(F)cc3)n2)ncn1 : > 10000 nM
NC(=O)C(CN1CCC(c2c[nH]c3ccc(NC(=O)c4ccc(F)cc4)cc23)CC1)N1CCC(c2c[nH]c3ccc(NC(=O)c4ccc(F)cc4)cc23)CC1 (centres undefined) : > 1000 nM

Shifting focus to the compound that follows.
stdin: What value of Ki on 5-hydroxytryptamine receptor 1D (Homo sapiens, UniProt P28221) does Cl.O=S(=O)(c1cccc2ccccc12)c1n[nH]c2ccc(NC3CCNCC3)cc12 have?
stdout: > 5000 nM
